experiment: chemical genetic growth profiling, strain panel (AID 1159580);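 further: tested at 20 µM; growth read once vehicle control cultures reached saturation at 30 °C; 1 = growth at the plate median or of vehicle wells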; details: S. cerevisiae deletion strains, growth OD, locus YHR129C, strain ARP1
The whole screen tested about 5,500 compounds, of which about 2,000 (36%) were called active. About 18% were inconclusive and are not listed. No stated cut-off is given here; in the data, active means normalized growth mostly below about 0.91 (no sharp cut-off); inconclusive means no clear call, values can overlap the other calls; inactive means mostly above about 0.92. Some of the results follow.
Hello, when you answer, please use one of the following outcomes: yes (1) for active, no (0) for inactive

See these solved cases before continuing.
molecule | answer_label
COC(=O)C(C)c1ccc(C(=O)c2cccs2)cc1 (configuration not stated) | no (0)
CCCCN1CCCCC1C(=O)Nc1c(C)cccc1C (configuration not stated) | no (0)
O=C(O)c1ccccc1-c1c2cc(Br)c(=O)cc-2oc2[c]([Hg])c(O)c(Br)cc12 | no (0)

Query block: Could you check what this test reported for "COc1ccc2c(c1)O[C@H]1c3ccc(OC)cc3OC[C@@H]21" ?
Result block: no (0)

Query block: Then this molecule: C=C1C(=O)O[C@@H]2C3O[C@]3(C)CC/C=C(\C)CC[C@@H]12 (some centres not stated)
Result block: yes (1)

Query block: Then this molecule: CCCNC1CCc2nc(N)sc2C1 (configuration not stated)
Result block: no (0)

Query block: Then this molecule: CO[C@@]1(NC(=O)CSCC#N)C(=O)N2C(C(=O)O)=C(CSc3nnnn3C)CSC21 (some centres not stated)
Result block: no (0)

Query block: Then this molecule: C=C1CCC(=O)C(C)CCC2C1CC2(C)C (configuration not stated)
Result block: no (0)

Query block: Then this molecule: "CCCCNc1ccc(C(=O)OCCN(C)C)cc1"
Result block: no (0)

Query block: Then this molecule: CCC(C)c1cnc(CC(C)C)c(=O)n1O (configuration not stated)
Result block: yes (1)

Query block: Then this molecule: "COc1c2ccoc2c(OC)c2oc(=O)ccc12"
Result block: no (0)

Query block: Then this molecule: "Cc1ccc(C)c(OCCCC(C)(C)C(=O)O)c1"
Result block: no (0)

Query block: Then this molecule: "CC(C)NNC(=O)c1ccncc1"
Result block: no (0)

Query block: Then this molecule: "NC(N)=NS(=O)(=O)c1ccc(N)cc1"
Result block: no (0)

Query block: Then this molecule: "CC[N+](CC)(CC)CCOc1cccc(OCC[N+](CC)(CC)CC)c1OCC[N+](CC)(CC)CC"
Result block: no (0)

Query block: Then this molecule: "CCC(C)(C)C(=O)O[C@H]1C[C@@H](C)C=C2C=C[C@H](C)[C@H](CC[C@@H]3C[C@@H](O)CC(=O)O3)[C@H]21"
Result block: no (0)

Query block: Then this molecule: "Cn1c(=O)c2[nH]cnc2n(C)c1=O"
Result block: no (0)

====

experiment: chemical genetic growth profiling, strain panel (AID 1159580); details: S. cerevisiae deletion strains, growth OD, locus YPR141C, strain kar3, stronger effect = lower value
The whole screen tested about 5,500 compounds, of which about 2,000 (36%) were called active. Roughly 18% stayed inconclusive and do not appear here. Some of the results follow.
Reported normalized growth by item:
Provide a numeric answer; units are not to be included.

Some molecules with known normalized growth results, for comparison:
molecule | parameter | recorded_number
CCOC(=O)[C@H](CCc1ccccc1)N[C@@H](C)C(=O)N1[C@H](C(=O)O)C[C@@H]2CCC[C@@H]21 | normalized growth | 1.03
OC(Cn1cncn1)(Cn1cncn1)c1ccc(F)cc1F | normalized growth | 0.989
COc1ccc2c(c1OC)C(=O)OC2[C@H]1c2c(cc3c(c2OC)OCO3)CCN1C (stereo not given in full) | normalized growth | 0.993

Query block: Consider the molecule CCCC(=O)O[C@]1(C(=O)CO)CCC2[C@@H]3CCC4=CC(=O)CC[C@]4(C)C3[C@@H](O)C[C@@]21C (stereo not given in full) and give its measured normalized growth.
Result block: 1.01

Query block: Then this molecule: NS(=O)(=O)c1cc2c(cc1Cl)NC(C(Cl)Cl)NS2(=O)=O (stereo not given)
Result block: 1.02

====

experiment: chemical genetic growth profiling, strain panel (AID 1159580); conditions: S. cerevisiae deletion strains, growth OD, locus YEL003W, strain gim4, stronger effect = lower value
About 2,000 (36%) of roughly 5,500 compounds were called active. Inconclusive results (about 18%) are left out. This is one part of the list.
parameter: normalized growth
Provide a numeric answer; units are not to be included.

Some compounds with known normalized growth results, for comparison:
compound | parameter | recorded_number
COC(=O)C1=CCCN(C)C1 | normalized growth | 0.997
C[C@@H]1C(=O)OC2[C@H](O)C34[C@@H]5OC(=O)[C@@]3(O[C@@H]3OC(=O)[C@H](O)[C@@]34[C@H](C(C)(C)C)[C@H]5O)[C@]21O (some centres undefined) | normalized growth | 0.961
CC(C)[C@@H]1CC[C@@H](C)C[C@H]1O | normalized growth | 0.989

Query block: Consider the compound "Cc1coc2c1C(=O)C(=O)c1c-2ccc2c1CCCC2(C)C" and give its measured normalized growth.
Result block: 0.903

Query block: Then this compound: "N[C@@H](CC(=O)N1CCn2c(nnc2C(F)(F)F)C1)Cc1cc(F)c(F)cc1F"
Result block: 0.966

Query block: Then this compound: "CC1(C)O[C@H]2[C@H](O)C[C@](O)(C(N)=O)C[C@H]2O1"
Result block: 1.02

Query block: Then this compound: "Cc1cccc(C)c1NC1=NCCCS1"
Result block: 1.01

Query block: Then this compound: "Cc1c(S(=O)(=O)O)oc2c1C(=O)C(=O)c1c-2ccc2c1CCCC2(C)C"
Result block: 0.928

Query block: Then this compound: Nc1ccn(C2O[C@H](CO)[C@@H](O)[C@@H]2O)c(=O)n1 (some centres undefined)
Result block: 0.973

====

test: chemical genetic growth profiling, strain panel (AID 1159580);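 further: tested at 20 µM; growth read once vehicle control cultures reached saturation at 30 °C; 1 = growth at the plate median or of vehicle wells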; conditions: S. cerevisiae deletion strains, growth OD, locus YKL048C, strain ELM1, stronger effect = lower value
Out of some 5,500 compounds screened, about 2,000 (36%) were called active. About 18% were inconclusive and are not listed. This is one part of the list.
Reported normalized growth by item:
Provide a numeric answer; units are not to be included.

Some compounds with known normalized growth results, for comparison:
molecule | recorded_number
CC(C)(CCC(C)(C)N1C(=O)c2cccc3cccc(c23)C1=O)N1C(=O)c2cccc3cccc(c23)C1=O | 0.104
CC1(C)OC(=O)C(=Cc2cccn2-c2ccc(OC(F)(F)F)cc2)C(=O)O1 | 0.931
CC1(C)OC(=O)C(=Cc2cccn2-c2ccc(C(F)(F)F)cc2)C(=O)O1 | 0.88
O=C(Nc1ccc(OC(F)(F)F)cc1)OC1CN(C(c2ccccc2)c2ccccc2)C1 | 0.961

We next turn to a different compound, shown below.
Query block: Consider the compound "CCCCCCCCCCCC(=O)NOC(=O)c1c(-c2c(Cl)cccc2Cl)noc1C" and give its measured normalized growth.
Result block: 0.995

====

experiment: chemical genetic growth profiling, strain panel (AID 1159580);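 further: tested at 20 µM; growth read once vehicle control cultures reached saturation at 30 °C; 1 = growth at the plate median or of vehicle wells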; details: S. cerevisiae deletion strains, growth OD, locus YLR262C, strain YPT6 (second series)
Screen size: about 5,500 compounds; about 2,000 (36%) were called active. Not shown: some 18% with an inconclusive outcome. No stated cut-off is given here; in the data, active means normalized growth mostly below about 0.91 (no sharp cut-off); inconclusive means no clear call, values can overlap the other calls; inactive means mostly above about 0.92. The list shows a part of the results.
Hello, when you answer, please use one of the following outcomes: class 1 = active, class 0 = inactive

See these solved cases before continuing.
compound | answer_label
CCCCCCCCCCCCCCCC(=O)OC1C(SC)OC(C(NC(=O)C2CC(CCC)CN2C)C(C)Cl)C(O)C1O (centres undefined) | class 0
CCCCN1CCCCC1C(=O)Nc1c(C)cccc1C (centres undefined) | class 0
CC(C)NC[C@H](O)COc1cccc2ccccc12 | class 0
CCCCOC(=O)c1ccc(N)cc1 | class 1
O=C(O)CN1C(=O)c2cccc3cccc(c23)C1=O | class 0

Query block: Could you check what this test reported for "O=c1cc(-c2ccccc2O)oc2cc(O)ccc12" ?
Result block: class 0

Query block: Then this compound: "COC(=O)C1=CCCN(C)C1"
Result block: class 0

Query block: Then this compound: NS(=O)(=O)c1cc2c(cc1Cl)NC(C(Cl)Cl)NS2(=O)=O (centres undefined)
Result block: class 0

====

assay: chemical genetic growth profiling, strain panel (AID 1159580);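 further: tested at 20 µM; growth read once vehicle control cultures reached saturation at 30 °C; 1 = growth at the plate median or of vehicle wells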; details: S. cerevisiae deletion strains, growth OD, locus YOR083W, strain WHI5, stronger effect = lower value
The campaign covered roughly 5,500 compounds. About 2,000 (36%) were called active. Another 18% or so got no clear call; they are omitted. The list shows a part of the results.
parameter: normalized growth
Provide a numeric answer; units are not to be included.

Query block: Consider the compound O=C1[C@H](CCC(O)c2ccc(F)cc2)[C@@H](c2ccc(O)cc2)N1c1ccc(F)cc1 (some centres undefined) and give its measured normalized growth.
Result block: 0.967

Query block: Then this compound: "Cc1ccc(C)c(OCCCC(C)(C)C(=O)O)c1"
Result block: 0.982

Query block: Then this compound: "Nc1nc2ncc(=O)[nH]c2c(=O)[nH]1"
Result block: 0.966

Query block: Then this compound: CC1=CC2C(CC1=O)C(C)=CCC2C(C)C (centres undefined)
Result block: 0.966

Query block: Then this compound: "CCNC(=O)CC[C@H](N)C(=O)O"
Result block: 0.998

Query block: Then this compound: C=CCCCCCCCCCCCC(O)CC(O)COC(C)=O (centres undefined) (tested in a mixture with another compound)
Result block: 0.873

Query block: Then this compound: CC(C)C(C)/C=C/C(C)C1CCC2C3=CC=C4CC(O)CCC4(C)C3CCC21C (centres undefined)
Result block: 0.991

Query block: Then this compound: "CC(C)(C)CC(C)(C)c1ccc(O)c(Cc2ccc(Cl)cc2Cl)c1"
Result block: 0.989

Query block: Then this compound: "CC(C)[C@@H]1CC[C@@H](C)C[C@H]1O"
Result block: 0.996

Query block: Then this compound: "NC(=O)c1cccc(N)c1"
Result block: 0.994

Query block: Then this compound: CC(C)COCC(CN(Cc1ccccc1)c1ccccc1)N1CCCC1 (centres undefined)
Result block: 0.967

Query block: Then this compound: "C[C@H]1CC[C@@H](C(C)(C)O)CC2=C1CC[C@@H]2C"
Result block: 0.975

Query block: Then this compound: "CCC(C)(C)C(=O)O[C@H]1C[C@@H](C)C=C2C=C[C@H](C)[C@H](CC[C@@H]3C[C@@H](O)CC(=O)O3)[C@H]21"
Result block: 0.981

Query block: Then this compound: "Oc1ccc(Cl)cc1Cc1cc(Cl)ccc1O"
Result block: 0.0694

Query block: Then this compound: CC(=O)OC1CCC2(C)C(=CC=C3C2CCC2(C)C3CCC2C(C)/C=C/C(C)C(C)C)C1(C)C (centres undefined)
Result block: 0.998

Query block: Then this compound: CCCCN1CCCCC1C(=O)Nc1c(C)cccc1C (centres undefined)
Result block: 1
